- assay.comment: solvent given as SMILES
- assay.setup: in ClCCl
quantity: log10(fluorescence lifetime) (log10 of the value in ns)
Note the log scale: values are log10 of fluorescence lifetime expressed in ns.

Ask: Please report the recorded log10(fluorescence lifetime) for COC(=O)c1ccc(C2=C(/C=C/c3ccc(OC)cc3)O[B-](F)(F)[O+]=C2/C=C/c2ccc(OC)cc2)cc1 .
Reply: 0.13

Ask: For the compound shown here, COCCOCCOCCOCC(COCCOCCOCCOC)Oc1cc(/C=C/c2ccc(/C=C(\C#N)c3ccc(C(F)(F)F)cc3)cc2)c(OC(COCCOCCOCCOC)COCCOCCOCCOC)cc1/C=C/c1ccc(/C=C(\C#N)c2ccc(C(F)(F)F)cc2)cc1 , give the reported log10(fluorescence lifetime).
Reply: 0.20

Ask: Look up log10(fluorescence lifetime) for this compound: CS1(C)C(/C=C/C2=C(c3ccc(C(=O)O)cc3)C(=C/C=C3/N(CCCCS(=O)(=O)[O-])c4ccccc4S3(C)C)/CCC2)=[N+](CCCCS(=O)(=O)[O-])c2ccccc21
Reply: 0.08

Ask: Quick check: log10(fluorescence lifetime) of CCCCC(CC)Cn1c2cc(-c3ccc(N(c4ccccc4)c4ccccc4)cc3)c(C#N)cc2c2cc(C#N)c(-c3ccc(N(c4ccccc4)c4ccccc4)cc3)cc21 (stereo unspecified) ?
Reply: 0.51

Ask: Would you mind telling me what log10(fluorescence lifetime) value was observed for O=P1(c2ccccc2)C(c2cc(C(F)(F)F)cc(C(F)(F)F)c2)=Cc2c3ccc4cccc5ccc(c6cc(-c7ccccc7)n1c26)c3c45 (stereo unspecified) ?
Reply: 0.46

Ask: I am curious: what log10(fluorescence lifetime) value has been reported for COc1cc(OC)cc(C2=[O+][B-](F)(F)OC(c3ccc4cc(OC)ccc4c3)=C2)c1 ?
Reply: 0.64

Ask: Bench note: what log10(fluorescence lifetime) did CCN1C(=O)C(C2C(=O)c3c4ccccc4cc4cc5ccccc5c2c34)SC1=S (stereo unspecified) show?
Reply: 1.02

Ask: What measured log10(fluorescence lifetime) goes with COC(=O)c1[nH]c(-c2ccc([N+](=O)[O-])cc2)c2nnc3ccc(OC)cc3c12 ?
Reply: 0.39

New cases:
Ask: Reported log10(fluorescence lifetime), compound Cc1cccc(-c2c3ccccc3cc3ccccc23)n1 : ____
Reply: 0.76

Ask: May I ask what log10(fluorescence lifetime) has been recorded for CC1(C)C(/C=C/C2=C(c3ccc(C(=O)O)cc3)C(=C/C=C3/N(CCCCS(=O)(=O)[O-])c4ccc5ccccc5c4C3(C)C)/CCC2)=[N+](CCCCS(=O)(=O)[O-])c2ccc3ccccc3c21 ?
Reply: 0.13

Ask: Can you share its log10(fluorescence lifetime)? I mean this compound: c1ccc(N(c2ccccc2)c2ccc(-c3cccc4nc5ccccc5cc34)cc2)cc1
Reply: 1.16

Numbers sourced from the Deep4Chem optical property database.
